System: MALME-3M melanoma
Test: NCI tumour cell line growth inhibition, 48 h; in the data active means GI50 below about 0.43 µM; inactive means the rest
Returns: one label drawn from 1 = active, 0 = inactive

Answered examples (4):
# COMPOUND, GROUP
rows = [
    ("O=C(Nc1ccc(CO)cc1)c1coc2ccccc2c1=O", 0),
    ("NC(CS/C(Cl)=C/Cl)C(=O)O (stereo not given)", 0),
    ("CC(=O)O[C@H](C[C@H](C(C)C)N(C)C(=O)[C@@H](NC(=O)[C@H]1CCCCN1C)C(C)C)c1nc(C(=O)N[C@@H](Cc2ccccc2)C[C@H](C)C(=O)O)c(CCOCc2ccccc2)s1", 1),
    ("COc1cc2c3c(n(CCCN(C)C)c(=O)c2cc1OC)-c1ccccc1C3=O", 0),
]

Shifting focus to the compound that follows.
Give the logged outcome of this assay for the following compound: Cc1cn2c(/C=C3\C(=O)N(C)c4ccc(O)cc43)c(C)nc2s1
0

* * *

Parameter: TGI. Scope: all listed entries.
Tested on: SR leukemia
Assay: NCI tumour cell line growth inhibition, 48 h
Unit µM implied. Number only.

A selection of reference data follows.
# COMPOUND, NUMBER
data = [
    ("COc1ccc2[nH]c3c4c(ccc3c2c1)C(=O)C=CC4=O", 2.79),
    ("O=C(CSC(c1ccccc1)c1ccccc1)N/N=C/c1ccc(Cl)cc1Cl", 38.8),
    ("CCOC(=O)CNC(=O)c1ccccc1Nc1ccnc(C(F)(F)F)c1", 57.8),
]

Send back SR leukemia TGI of CCC(C)(C)c1ccc(OCCCCCCN2CCNCC2)cc1 only.
3.71

Send back SR leukemia TGI of O=C1c2ccc3c4ccccc4n(Cc4ccccc4)c3c2C(=O)N1c1ccccc1 only.
22.1

Send back SR leukemia TGI of COc1cc(Nc2c3ccccc3nc3ccccc23)ccc1NS(C)(=O)=O only.
15.2

Send back SR leukemia TGI of CCC1(C)N=C(c2cnccn2)NN1c1ccc(Cl)cc1 (stereo unspecified) only.
76.2

* * *

Parameter: TGI. Scope: all listed entries.
System: SN12C renal
Assay: NCI tumour cell line growth inhibition, 48 h

A selection of reference data follows.
# COMPOUND, TGI
measured = [
    ("Cc1cn(C(Cc2ccccc2)OCCO)c(=O)[nH]c1=O (stereo unspecified)", "> 100 µM"),
    ("O=C1OC2(OC2c2ccccc2)c2ccccc21 (stereo unspecified)", "> 100 µM"),
    ("O=c1c2c([N+](=O)[O-])cccc2nc2[nH]c3ccccc3n12", "> 75 µM"),
    ("O=c1[nH]nc(Cc2ccc([N+](=O)[O-])cc2)n1CCO", "> 100 µM"),
]

Query TGI for O=C(/C=C/c1cc(CN2CCOCC2)c(O)c2ncccc12)c1cc(CN2CCOCC2)c(O)c2ncccc12
> 100 µM

Query TGI for CC(C)CNC(=O)O
> 100 µM

* * *

Tested on: COLO 205 colon
Assay: NCI tumour cell line growth inhibition, 48 h; in the data active means GI50 below about 0.43 µM; inactive means the rest
Returns: one label drawn from active, inactive

Answered examples (3):
# COMPOUND, GROUP
measured = [
    ("N#C/C(=C/N1CCN(C(=O)c2ccco2)C1=S)C(=O)c1ccccc1", "inactive"),
    ("COc1ccc2ncn(-c3cc(O[C@H](C)c4ccccc4Cl)c(C(N)=O)s3)c2c1", "active"),
    ("COc1ccc(-c2oc3cc(O)c(OC)c(O)c3c(=O)c2OC)cc1O", "inactive"),
]

Give the logged outcome of this assay for the following compound: COc1ccc(C(=O)COc2cccc(/C=C3\Oc4ccc5ccccc5c4C3=O)c2)cc1
inactive

Give the logged outcome of this assay for the following compound: Cc1cc(C2CC(O)C(CO)O2)cc2c(=O)[nH]c(N)nc12 (stereo not given)
inactive

Give the logged outcome of this assay for the following compound: Cc1cc[c-]cc1.Fc1c[c-]c(-c2ccccn2)c(F)c1.[Pt+2].c1ccc(P(C[PH+](c2ccccc2)c2ccccc2)c2ccccc2)cc1
inactive

Give the logged outcome of this assay for the following compound: O=C(Nc1ccc(Br)cc1)c1ccc(Cl)c(Cl)c1
inactive

Give the logged outcome of this assay for the following compound: Cc1cn2c(/C=C3\C(=O)N(C)c4ccc(O)cc43)c(C)nc2s1
inactive

Give the logged outcome of this assay for the following compound: O=C(/C=C/c1cc(CN2CCOCC2)c(O)c2ncccc12)c1cc(CN2CCOCC2)c(O)c2ncccc12
active

Give the logged outcome of this assay for the following compound: CC(=O)/C=C/c1ccc(C#Cc2ccccc2)s1
inactive

Give the logged outcome of this assay for the following compound: COc1cccc(/C(COc2ccc3c(c2)oc(=O)c2cc(OC)ccc23)=N/O)c1
inactive

Give the logged outcome of this assay for the following compound: COc1ccc2c(O)cc3c(c2c1)[C@H](CCl)CN3C(=O)c1cc2cc(NC(=O)CCN3CCOCC3)ccc2[se]1
active

Give the logged outcome of this assay for the following compound: N.N.N.N.[Cl-].[Co+3].[N-]=[N+]=[N-].[N-]=[N+]=[N-]
inactive

Give the logged outcome of this assay for the following compound: CN(CCCNC(=O)Cc1ccc2ccc3cccc4ccc1c2c34)CCCNc1cc(-c2ccc3ccccc3c2)nc2ccccc12
inactive

Give the logged outcome of this assay for the following compound: C[C@]12CC[C@@H]3c4ccc(O)cc4CC[C@H]3[C@@H]1CC[C@@H]2NS(=O)(=O)c1cccc(F)c1
inactive

* * *

Tested on: NCI-H522 lung
Assay: NCI tumour cell line growth inhibition, 48 h
Rule: TGI of 20 µM or more gives y; anything lower gives n.

Answered examples (3):
# COMPOUND, ASSAY_SYSTEM, GROUP
records = [
    ("C=CCSS/C=C/CS(=O)CC=C (stereo not given)", "NCI-H522 lung", "y"),
    ("O=C1OC2(OC2c2ccccc2)c2ccccc21 (stereo not given)", "NCI-H522 lung", "y"),
    ("CN(C)Cc1cc(C(=O)/C=C/c2ccccc2Cl)cc(CN(C)C)c1O", "NCI-H522 lung", "n"),
]

Identify whether the reported TGI of the following compound is 20 µM or greater: CN(C)c1ccc(C2SCC(=O)N2NS(=O)(=O)c2cccc(C(=O)O)c2)cc1 (stereo not given)
y

Identify whether the reported TGI of the following compound is 20 µM or greater: COc1ccc2c(c1)C(C)Cc1c(ncnc1-n1c(C)nc3ccccc31)N2C (stereo not given)
n

Identify whether the reported TGI of the following compound is 20 µM or greater: CC(=O)c1ccc2c3c1[C@@H]1O[C@@H]1c1cccc(c1-3)[C@@H]1O[C@H]21
n

Identify whether the reported TGI of the following compound is 20 µM or greater: O=C1c2ccccc2-c2nc(-c3cccc([N+](=O)[O-])c3)nnc21
y

Identify whether the reported TGI of the following compound is 20 µM or greater: COc1ccc2[nH]c3c4c(ccc3c2c1)C(=O)C=CC4=O
n

Identify whether the reported TGI of the following compound is 20 µM or greater: COc1ccc(C2c3cc(OC)c(OC)cc3C(Cc3ccc([N+](=O)[O-])cc3)C2c2ccc([N+](=O)[O-])cc2)cc1OC (stereo not given)
y

Identify whether the reported TGI of the following compound is 20 µM or greater: CCOC(=O)c1ccc(N2C(=S)N(C(=O)c3ccccc3)C(=Nc3ccccc3)C2=Nc2ccccc2)cc1
y

* * *

Parameter: GI50. Scope: all listed entries.
Test system: MOLT-4 leukemia
Assay: NCI tumour cell line growth inhibition, 48 h

A selection of reference data follows.
# STRUCTURE, GI50
records = [
    ("Cc1cc(I)cc(CN(C)CCCN2CCOCC2)c1O", "30.2 µM"),
    ("COc1cc2ncn(-c3cc(OCCc4ccccc4)c(C(N)=O)s3)c2cc1OC", "12.4 µM"),
]

Query GI50 for C1C[OH+]CCNCC[OH+]CC[OH+]CCN1.[Cl-].[Pt+4]
> 100 µM

Query GI50 for O=C(Nc1ccc(Br)cc1)c1ccc(Cl)c(Cl)c1
3.17 µM

Query GI50 for O=C(Nc1ccc(CO)cc1)c1coc2ccccc2c1=O
> 100 µM

Query GI50 for Cc1cc(N/N=C/c2nc(-c3ccc(Br)cc3)oc2C)c2cc(Br)ccc2n1
2.65 µM

* * *

System: LOX IMVI melanoma
Assay: NCI tumour cell line growth inhibition, 48 h
PROPERTY: TGI

A selection of reference data follows.
# STRUCTURE, TGI
rows = [
    ("CC(C)C(=O)/C=C/c1ccc(Br)cc1", "32.1 µM"),
    ("CCc1ccc2oc(-c3cc(O)c(-c4nc5cc(CC)ccc5o4)cc3O)nc2c1", "> 100 µM"),
    ("CCOc1ccc(-c2nc(-c3oc4ccccc4c(=O)c3OC(C)=O)cs2)cc1", "> 10 µM"),
    ("Nc1ccc2[nH]c3c(-c4ccccc4)nccc3c2c1", "> 100 µM"),
    ("Nc1ccc(N=Nc2ccccc2)cc1", "> 100 µM"),
]

Send back LOX IMVI melanoma TGI of Cc1cc(C)[n+](CCOc2ccc(/C(=C(/Cl)c3ccccc3)c3ccccc3)cc2)c(C)c1 only.
2.14 µM
